The reported measurements were obtained from PubChem BioAssay (NCI).

Tested on: SR leukemia
EXPERIMENTAL DETAILS: NCI tumour cell line growth inhibition, 48 h; in the data active = GI50 below about 0.43 µM; inactive = the rest
The categories you may choose from are active, inactive

Consider the following illustrative entries.
MOLECULE	QUALITATIVE LABEL
COc1ccc(Cn2c(Br)c3c(c2-c2cc(OC)c(OC)c(OC)c2)CCc2sc(N)nc2-3)cc1	active
CC(C)c1ccc2c(c1)CCC1C2CCCC1(C)NCc1ccccc1 (stereo not drawn)	inactive
CCCCCCCCCCN=C(N)c1ccc(N2CCN(c3ccc(C(N)=NCCCCCCCCCC)cc3)CC2)cc1	inactive
COc1cc2c(cc1C)NC(=O)/C2=C\c1ccc(Oc2ccccc2)cc1	active
FC(F)(F)c1cccc(CNC2CCN(CCc3ccccc3)CC2)c1	inactive

// query Called result for "COc1cc(/C=C/C(=O)c2nc3cc(F)ccc3nc2C)cc(OC)c1OC"
// result inactive

// query Called result for "COc1cc(/C=C/c2cc(/C=C/c3ccc(O)c(OC)c3)n(C(=O)Nc3ccc(C)cc3)n2)ccc1O"
// result active

// query Called result for "CN(C)[C@@H]1C(=O)C(C(=O)NCc2nc3[nH]cnc(=S)c3[nH]2)=C(O)[C@@]2(O)C(=O)C3=C(O)c4c(O)cccc4[C@@](C)(O)[C@H]3C[C@@H]12"
// result inactive

// query Called result for "CN1CCN(C(=O)/C=C/c2ccc([N+](=O)[O-])o2)CC1"
// result inactive

// query Called result for "CC(=O)O[C@H]([C@H](OC(C)=O)[C@H](C)OC(C)=O)[C@@H](/C=C/[C@H]1CC=CC(=O)O1)OC(C)=O"
// result inactive

// query Called result for "CCN1CCN(CC(=O)Nc2nc3ccc(NCc4ccc(Br)cc4)cc3s2)CC1"
// result inactive

// query Called result for "N#C[Se]CCN1C(=O)c2ccccc2C1=O"
// result inactive

// query Called result for "O=[N+]([O-])c1ccc(N/N=C\c2cc(Br)ccc2O)nc1"
// result inactive

// query Called result for "CC(=O)O[C@H]1C[C@@H]2[C@@]3(C)CC[C@H]4C[C@@]4(C)[C@@H]3CC[C@@]2(C)C2=CCC3=C(COC3=O)[C@]21C"
// result inactive

// query Called result for "COc1cc(NC(=O)COc2ccccc2)c(C(N)=O)cc1OC"
// result inactive

// query Called result for "COc1ccc(-n2c(=O)c3ccccc3n(Cc3ccc(C(=O)NO)cc3)c2=O)cc1"
// result inactive

// query Called result for "CN(C)c1ccc(/C=N/N=C(\C#N)[S][Sn]([Cl])([c]2ccccc2)[c]2ccccc2)cc1"
// result inactive

// query Called result for "C/C(=C\c1csc(C)n1)[C@@H]1C[C@@H]2O[C@]2(C)CCC[C@H](C)[C@H](O)[C@@H](C)C(=O)C(C)(C)[C@@H](O)CC(=O)N1"
// result active
